self-aminoacylation values by entry
Test system: biotinyl-Met-oxazolone
Experiment: self-aminoacylation, catalytic enhancement (BMO) (fold over background); higher = more active; k-Seq, kA / k0A0; sequences stand for … in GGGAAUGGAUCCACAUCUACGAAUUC…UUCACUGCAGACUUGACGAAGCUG
Fewer inactive variants are shown than the library holds.
Reply with just the number.

Please review the entries below; each comes with its answer.
INSERT INTO measurements (sequence_content, recorded_value) VALUES
  ('AUUCACCUAGAUCAUUGGGUG [Fam2.2 aminoacylation ribozyme variant]', 3.71),
  ('AUUACCGUGGUCAUCGAGUGU [Fam2.1 aminoacylation ribozyme variant]', 3.17),
  ('AUGUUUGCUAAUCGUCGCAAG [Fam3.1 aminoacylation ribozyme variant]', 1.13),
  ('AUCACCCAGGUCAUCGAGUGA [Fam2.1 aminoacylation ribozyme variant]', 7.75),
  ('AUUCACCUAGGUCAUCGGGCG [Fam2.2 aminoacylation ribozyme variant]', 7.58),
  ('AUUACCCUGCUCAUCGAAUGA [Fam2.1 aminoacylation ribozyme variant]', 0.845),
  ('CCCCACUUCAAGCAAUCGGGC [Fam1B.1 aminoacylation ribozyme variant]', 3.15),
  ('CCACACUUCAAGCUAACGGUC [Fam1B.1 aminoacylation ribozyme variant]', 0.532);

Consider the additional sequence presented here.
What self-aminoacylation value was documented for this sequence, AUUCACCUAGGUCAUCGGAUA [Fam2.2 aminoacylation ribozyme variant] ? 0.754

FYI, the data here is from the supplement of paper PMC9233669.
